- System: Human Thrombocytes
- Measurement Description: Fibrinogen Binding to Human Thrombocytes (I125-fibrinogen, gel-filtered platelets)
- Details: inhibition of I125-fibrinogen binding to gel-filtered human platelets, ADP, 20 minutes, ambient temperature; read-out: Fibrinogen Binding test IC50
pIC50: −log10 of the molar value. Counter-ions that a name gives are not always drawn.
Quick rule: pIC50 of at least 6 means Fulfilled, below that means Not fulfilled.

{"Molecule": "N=C(N)c1ccc(-c2ccc(N3CCN(CC(=O)O)C3=O)cc2)cc1", "Assigned Label": "Not fulfilled"}
{"Molecule": "CCOC(=O)CCc1ccc(-n2ccn(-c3ccc(C(=N)NC(=O)OCC)cc3)c2=O)cc1", "Assigned Label": "Not fulfilled"}
{"Molecule": "COC(=O)CCN1CCN(c2ccc(-c3ccc(C(=N)N)cc3)nn2)C1=O [2(27), hydrochloride]", "Assigned Label": "Not fulfilled"}
{"Molecule": "NCc1ccc(N2CCN(c3ccc(CC(N)C(=O)O)cc3)C2=O)cc1 (stereo not shown)", "Assigned Label": "Fulfilled"}
{"Molecule": "N=C(N)c1ccc(-c2ccc(N3CCN(CCC(=O)O)C3=O)cc2)cc1", "Assigned Label": "Fulfilled"}
{"Molecule": "N=C(N)c1ccc(N2CCN(CCCCC(=O)O)C2=O)cc1", "Assigned Label": "Not fulfilled"}
{"Molecule": "COC(=O)CCCCN1CCN(c2ccc(C(=N)N)cc2)C1=O [2(71), hydrochloride]", "Assigned Label": "Not fulfilled"}
{"Molecule": "COC(=O)CCc1ccc(N2CCN(c3ccc4c(c3)CCC4N)C2=O)cc1 (stereo not shown) [31(1), hydrochloride]", "Assigned Label": "Fulfilled"}
{"Molecule": "NC1CCc2cc(N3CCN(c4ccc(CCC(=O)O)cc4)C3=O)ccc21 (stereo not shown)", "Assigned Label": "Fulfilled"}
{"Molecule": "N=C(N)c1ccc(-c2ccc(N3CCN(CCC(=O)O)C3=O)nn2)cc1", "Assigned Label": "Fulfilled"}
{"Molecule": "COC(=O)CCn1cc(-c2ccc(-c3ccc(C(=N)N)cc3)cc2)n(-c2ccccc2)c1=O [2(106), hydrochloride]", "Assigned Label": "Not fulfilled"}
{"Molecule": "N=C(N)c1ccc(-n2cnn(-c3ccc(CCC(=O)O)cc3)c2=O)cc1", "Assigned Label": "Fulfilled"}
{"Molecule": "N=C(N)c1ccc(N2CC(=O)N(c3ccc(CCC(=O)O)cc3)C2=O)cc1", "Assigned Label": "Fulfilled"}
{"Molecule": "COC(=O)CCc1ccc(N2CCN(c3ccc(CN)cc3)C2=O)cc1 [8(2), hydrochloride]", "Assigned Label": "Fulfilled"}
{"Molecule": "COC(=O)c1ccc(CCN2CCN(c3ccc(C(=N)N)cc3)C2=O)cc1", "Assigned Label": "Not fulfilled"}
{"Molecule": "N=C(N)c1ccc(N2CCN(c3ccc([S+]([O-])CC(=O)O)cc3)C2=O)cc1 (stereo not shown)", "Assigned Label": "Fulfilled"}
{"Molecule": "N=C(N)c1ccc(N2CCN(c3ccc(CCC(=O)O)cc3)S2(=O)=O)cc1", "Assigned Label": "Fulfilled"}
{"Molecule": "NCc1ccc(N2CCN(c3ccc(OCC(=O)O)cc3)C2=O)cc1", "Assigned Label": "Fulfilled"}
{"Molecule": "COC(=O)CNCCN1CCN(c2ccc(C(=N)N)cc2)C1=O", "Assigned Label": "Not fulfilled"}
{"Molecule": "Cc1nn(-c2ccc(C(=N)N)cc2)c(=O)n1-c1ccc(CCC(=O)O)cc1", "Assigned Label": "Fulfilled"}
{"Molecule": "N=C(N)c1ccc(-c2ccc(-c3cn(CCC(=O)O)c(=O)n3-c3ccccc3)cc2)cc1", "Assigned Label": "Fulfilled"}
{"Molecule": "COC(=O)C(Cc1ccc(-n2ccn(-c3ccc(C(=N)N)cc3)c2=O)cc1)N(Cc1ccccc1)Cc1ccccc1 (stereo not shown) [2(127), hydrochloride]", "Assigned Label": "Not fulfilled"}
{"Molecule": "COC(=O)CCc1ccc(-n2cnn(-c3ccc(C(=N)N)cc3)c2=O)cc1 [2(123), hydrochloride]", "Assigned Label": "Not fulfilled"}
{"Molecule": "COC(=O)CCn1cc(-c2ccc(-c3ccc(C(=N)N)cc3)cc2)n(C)c1=O [2(105), hydrochloride]", "Assigned Label": "Not fulfilled"}
{"Molecule": "COC(=O)CCc1ccc(N2CCN(c3ccc(C(C)N)cc3)C2=O)cc1 (stereo not shown) [Example 31, hydrochloride]", "Assigned Label": "Fulfilled"}
{"Molecule": "N=C(N)c1ccc(N2CCN(CCNCC(=O)O)C2=O)cc1", "Assigned Label": "Not fulfilled"}
{"Molecule": "N=C(N)c1ccc(-c2ccc(C3CN(CCC(=O)O)C(=O)N3c3ccccc3)cc2)cc1 (stereo not shown) [4(13), hydrochloride]", "Assigned Label": "Fulfilled"}
{"Molecule": "N=C(N)c1ccc(-c2cn(-c3ccc(CCC(=O)O)cc3)c(=O)n2-c2ccccc2)cc1 [1(94), hydrochloride]", "Assigned Label": "Fulfilled"}
{"Molecule": "N=C(N)c1ccc(-c2ccc(N3CCN(CCC(=O)O)S3(=O)=O)cc2)cc1", "Assigned Label": "Fulfilled"}
{"Molecule": "CCOC(=O)CCN1C(=O)CN(c2ccc(-c3ccc(C(=N)N)cc3)cc2)C1=O [2(2), hydrochloride]", "Assigned Label": "Not fulfilled"}
{"Molecule": "COC(=O)C(N)Cc1ccc(N2CCN(c3ccc(CN)cc3)C2=O)cc1 (stereo not shown) [8(3), dihydrochloride]", "Assigned Label": "Not fulfilled"}
{"Molecule": "NCc1ccc(N2CCN(c3ccc(CCC(=O)O)cc3)C2=O)cc1", "Assigned Label": "Fulfilled"}
{"Molecule": "COC(=O)NC(=N)c1ccc(-n2nc(C)n(-c3ccc(CCC(=O)OCC(C)C)cc3)c2=O)cc1", "Assigned Label": "Not fulfilled"}

###

- Tested on: Human Thrombocytes
- Measurement Description: Fibrinogen Binding to Human Thrombocytes (I125-fibrinogen, gel-filtered platelets)
- Details: inhibition of I125-fibrinogen binding to gel-filtered human platelets, ADP, 20 minutes, ambient temperature; read-out: Fibrinogen Binding test IC50
Structures can show the parent of a compound that is named as a salt.
Returns the class for an entry based on its IC50. Class ranges: Low: < 50 nM; Mid: ≥ 50 nM and < 4000 nM; High: ≥ 4000 nM

{"Molecule": "COC(=O)CCC1CCC(N2CCN(c3ccc(C(=N)NC(=O)OC)cc3)C2=O)CC1 (stereo not drawn)", "Target Entity": "Human Thrombocytes", "Assigned Label": "Mid"}
{"Molecule": "COC(=O)CCc1ccc(N2CCN(c3ccc(C(=N)NC(=O)OC)cc3)C2=O)cc1", "Target Entity": "Human Thrombocytes", "Assigned Label": "High"}
{"Molecule": "COC(=O)CCc1ccc(N2CCN(c3ccc(C(=N)N)cc3)C2=O)cc1 [2(6), hydrochloride]", "Target Entity": "Human Thrombocytes", "Assigned Label": "Mid"}
{"Molecule": "COC(=O)CCCCn1c(=O)n(-c2ccc(C(=N)N)cc2)c2ncccc21 [2(116), dihydrochloride]", "Target Entity": "Human Thrombocytes", "Assigned Label": "High"}
{"Molecule": "Cc1nn(-c2ccc(C(=N)N)cc2)c(=O)n1-c1ccc(CCC(=O)OCC(C)C)cc1 [11(12), hydrochloride]", "Target Entity": "Human Thrombocytes", "Assigned Label": "Low"}
{"Molecule": "Cn1c(-c2ccc(-c3ccc(C(=N)N)cc3)cc2)cn(CCC(=O)O)c1=O", "Target Entity": "Human Thrombocytes", "Assigned Label": "Mid"}
{"Molecule": "N=C(N)c1ccc(N2CCN(c3ccc(CC(N)C(=O)O)cc3)C2=O)cc1 (stereo not drawn)", "Target Entity": "Human Thrombocytes", "Assigned Label": "Low"}
{"Molecule": "CC(N)c1ccc(N2CCN(c3ccc(CCC(=O)O)cc3)C2=O)cc1 (stereo not drawn)", "Target Entity": "Human Thrombocytes", "Assigned Label": "Mid"}
{"Molecule": "CCOC(=O)CCn1ccn(-c2ccc(-c3ccc(C(=N)N)cc3)cc2)c1=O", "Target Entity": "Human Thrombocytes", "Assigned Label": "High"}
{"Molecule": "COC(=O)CCC1CCC(N2CCN(c3ccc(C(=N)N)cc3)C2=O)CC1 (stereo not drawn) [2(43), hydrochloride]", "Target Entity": "Human Thrombocytes", "Assigned Label": "Mid"}
{"Molecule": "COC(=O)CN1CCCN(c2ccc(-c3ccc(C(=N)N)cc3)cc2)C1=O [2(5), hydrochloride]", "Target Entity": "Human Thrombocytes", "Assigned Label": "High"}
{"Molecule": "N=C(N)c1ccc(N2CCN(C3CCC(CCC(=O)O)CC3)C2=O)cc1 (stereo not drawn)", "Target Entity": "Human Thrombocytes", "Assigned Label": "Low"}
{"Molecule": "COC(=O)CCc1ccc(N2CCN(c3ccc(C(=N)N)cc3C)C2=O)cc1 [2(34), hydrochloride]", "Target Entity": "Human Thrombocytes", "Assigned Label": "High"}
{"Molecule": "N=C(N)c1ccc(N2CCN(c3ccc(S(=O)(=O)CC(=O)O)cc3)C2=O)cc1", "Target Entity": "Human Thrombocytes", "Assigned Label": "Low"}
{"Molecule": "N=C(N)c1ccc(-n2ccn(-c3ccc(CCC(=O)O)cc3)c2=O)cc1", "Target Entity": "Human Thrombocytes", "Assigned Label": "Low"}
{"Molecule": "CN1C(=O)N(CCC(=O)O)CC1c1ccc(-c2ccc(C(=N)N)cc2)cc1 (stereo not drawn) [4(14), hydrochloride]", "Target Entity": "Human Thrombocytes", "Assigned Label": "Low"}
{"Molecule": "N=C(N)c1ccc(-c2ccc(N3CCCN(CC(=O)O)C3=O)cc2)cc1", "Target Entity": "Human Thrombocytes", "Assigned Label": "High"}
{"Molecule": "N=C(N)c1ccc(-c2ccc(-n3ccn(CCC(=O)O)c3=O)cc2)cc1", "Target Entity": "Human Thrombocytes", "Assigned Label": "Mid"}

Where do these numbers come from? They come from patent US5276049A.
